Ref: ChEMBL document CHEMBL4732258

tested on: KBV; assay: Reversal of Pgp-mediated paclitaxel resistance in human KBV cells assessed as cell viability at 5 uM in presence of paclitaxel incubated for 72 hrs by MTT assay; assay type: cell-based
Activity below 80% gives -1; Activity at or above it gives 1.

Check this compound for Activity at or above 80%: "CC(C)(O)[C@H]1CC[C@@](C)([C@H]2CC[C@]3(C)[C@@H]2[C@H](O)C[C@@H]2[C@@]4(C)CC[C@H](OC(=O)[C@@H](N)CC(=O)O)C(C)(C)[C@@H]4CC[C@]23C)O1"
1

Cool, now "CC(C)(O)[C@H]1CC[C@@](C)([C@H]2CC[C@]3(C)[C@@H]2[C@H](O)C[C@@H]2[C@@]4(C)CC[C@H](OC(=O)[C@@H](N)CCC(=O)O)C(C)(C)[C@@H]4CC[C@]23C)O1"
1

Moving on to the next compound: "CC(C)(O)[C@@H]1CC[C@@](C)([C@H]2CC[C@]3(C)[C@@H]2[C@H](O)C[C@@H]2[C@@]4(C)CC[C@H](O)C(C)(C)[C@@H]4CC[C@]23C)O1"
-1

One more compound: "CC(C)(O)[C@H]1CC[C@@](C)([C@H]2CC[C@]3(C)[C@@H]2[C@H](O)C[C@@H]2[C@@]4(C)CC[C@H](OC(=O)[C@@H](N)CCCCN)C(C)(C)[C@@H]4CC[C@]23C)O1"
1

Request: "CC(C)(O)[C@@H]1CC[C@@](C)([C@H]2CC[C@]3(C)[C@@H]2[C@H](O)C[C@@H]2[C@@]4(C)CC[C@H](OC(=O)[C@@H](N)Cc5ccc(O)cc5)C(C)(C)[C@@H]4CC[C@]23C)O1"
1
